# experimental-protocol: Predicted gefitinib exposure (empirical Bayesian estimates), inter- and intra-patient comparison with/without ILD
# Format: in vivo, Japanese patients with NSCLC
# condition-details: human, plasma, oral, 250 mg, after the first dosing, patients with ILD, value printed in box plot Fig. 1a, read-out: Cmax
measure: Cmax (ng/mL)
Note: unit ng/mL is implicit; provide only the numeric part.

Need Cmax, item COc1cc2ncnc(Nc3ccc(F)c(Cl)c3)c2cc1OCCCN1CCOCC1 [gefitinib] 214

###

# experimental-protocol: Predicted gefitinib exposure (empirical Bayesian estimates), inter- and intra-patient comparison with/without ILD
# Format: in vivo, Japanese patients with NSCLC
# condition-details: human, plasma, oral, 250 mg, after the first dosing, patients without ILD, value printed in box plot Fig. 1a, read-out: Cmax
measure: Cmax (ng/mL)
Note: unit ng/mL is implicit; provide only the numeric part.

Need Cmax, item COc1cc2ncnc(Nc3ccc(F)c(Cl)c3)c2cc1OCCCN1CCOCC1 157
